biological target: Adenosine receptor A1 (Homo sapiens) (UniProt P30542); test: Displacement of [3H]DPCPX from human adenosine A1 receptor expressed in CHO cells at 10 uM after 120 mins by scintillation counting; type: cell-based
Sequence (P30542 whole entry): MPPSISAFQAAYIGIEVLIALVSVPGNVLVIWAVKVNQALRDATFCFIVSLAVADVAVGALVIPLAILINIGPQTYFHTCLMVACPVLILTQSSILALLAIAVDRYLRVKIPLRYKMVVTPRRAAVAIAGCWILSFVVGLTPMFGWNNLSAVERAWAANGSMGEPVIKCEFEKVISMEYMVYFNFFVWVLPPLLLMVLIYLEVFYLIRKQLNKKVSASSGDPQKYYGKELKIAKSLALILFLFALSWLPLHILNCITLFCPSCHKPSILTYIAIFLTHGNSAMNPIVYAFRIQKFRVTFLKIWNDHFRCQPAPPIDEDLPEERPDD
attribute measured: inhibition

Examples with answers:
1) Nc1sc(Cc2ccc(OC(F)(F)F)cc2)c(-c2ccccc2)c1C(=O)c1ccc(Cl)cc1: < 10%
2) COc1ccc(-c2sc(N)c(C(=O)c3ccc(Cl)cc3)c2Cc2ccc(Cl)cc2)cc1: < 10%

// next item, inhibition requested
Inquiry: State its inhibition for this molecule: Cc1ccc(Cc2c(-c3ccccc3)sc(N)c2C(=O)c2ccc(Cl)cc2)cc1
Reply text: < 10%

---

biological target: Adenosine receptor A1 (Homo sapiens) (UniProt P30542); test: Binding affinity to human adenosine A1 receptor expressed in CHO cells assessed as fold Bmax shift of [3H]-CCPA at 10 uM after 90 mins by [3H]-CCPA binding assay relative to control; assay type: cell-based
Please mark Yes if the recorded fold change (FC) is equal to or greater than 6, and No if it falls below.

For orientation, consider the following solved cases.
1. COc1ccccc1Cc1c(-c2ccccc2)sc(N)c1C(=O)c1ccc(Cl)cc1: No
2. Nc1sc(Cc2ccccc2)c(-c2ccccc2)c1C(=O)c1ccc(Cl)cc1: No
3. Nc1sc(-c2ccc(Cl)cc2)c(Cc2ccccc2)c1C(=O)c1ccc(Cl)cc1: Yes
4. Nc1sc(-c2ccc(F)cc2)c(Cc2ccc(Cl)cc2)c1C(=O)c1ccc(Cl)cc1: No

Inquiry: Check if fold change (FC) >= 6 (inclusive). Item: CCOc1ccc(Cc2sc(N)c(C(=O)c3ccc(Cl)cc3)c2-c2ccccc2)cc1
Reply text: No

Inquiry: Check if fold change (FC) >= 6 (inclusive). Item: Nc1sc(-c2ccccc2)c(Cc2ccc(OC(F)(F)F)cc2)c1C(=O)c1ccc(Cl)cc1
Reply text: Yes

Inquiry: Check if fold change (FC) >= 6 (inclusive). Item: Nc1sc(-c2ccccc2)c(Cc2ccc(Cl)cc2)c1C(=O)c1ccc(Cl)cc1
Reply text: Yes

---

biological target: Adenosine receptor A1 (Homo sapiens); assay: Positive allosteric enhancement of human cloned adenosine A1 receptor expressed in CHO cells assessed as inhibition of forskolin-induced cAMP accumulation at 10 uM using [3H]-cAMP by scintillation counting relative to control; type: functional, cell-based
Please mark condition met if the recorded inhibition is equal to or greater than 60%, and condition not met if it falls below.

1) COc1ccc(Cc2c(-c3ccccc3)sc(N)c2C(=O)c2ccc(Cl)cc2)cc1: condition met
2) Nc1sc(-c2ccccc2)c(Cc2cccc3ccccc23)c1C(=O)c1ccc(Cl)cc1: condition not met
3) Nc1sc(-c2ccc(Cl)cc2)c(Cc2ccccc2)c1C(=O)c1ccc(Cl)cc1: condition met
4) Nc1sc(Cc2ccccc2)c(-c2ccccc2)c1C(=O)c1ccc(Cl)cc1: condition not met
5) COc1ccc(Cc2c(-c3ccccc3)sc(N)c2C(=O)c2ccc(Cl)cc2)c(OC)c1: condition not met
6) COc1ccc(Cc2c(-c3ccc(OC)cc3)sc(N)c2C(=O)c2ccc(Cl)cc2)cc1: condition not met
7) COc1ccc(Cc2c(-c3ccc(Cl)cc3)sc(N)c2C(=O)c2ccc(Cl)cc2)cc1: condition met
8) COc1cccc(Cc2sc(N)c(C(=O)c3ccc(Cl)cc3)c2-c2ccccc2)c1: condition not met

Inquiry: Check if inhibition >= 60% (inclusive). Item: COc1ccc(Cc2sc(N)c(C(=O)c3ccc(Cl)cc3)c2-c2ccccc2)cc1C
Reply text: condition not met

Inquiry: Check if inhibition >= 60% (inclusive). Item: Nc1sc(-c2ccc(F)cc2)c(Cc2ccc(Cl)cc2)c1C(=O)c1ccc(Cl)cc1
Reply text: condition not met

Inquiry: Check if inhibition >= 60% (inclusive). Item: COc1ccc(-c2sc(N)c(C(=O)c3ccc(Cl)cc3)c2Cc2ccccc2)cc1
Reply text: condition not met

Inquiry: Check if inhibition >= 60% (inclusive). Item: Nc1sc(-c2ccccc2)c(Cc2ccccc2)c1C(=O)c1ccc(Cl)cc1
Reply text: condition not met

Inquiry: Check if inhibition >= 60% (inclusive). Item: COc1ccc(-c2sc(N)c(C(=O)c3ccc(Cl)cc3)c2Cc2ccc(SC)cc2)cc1
Reply text: condition met

Inquiry: Check if inhibition >= 60% (inclusive). Item: CC(C)Oc1ccc(Cc2c(-c3ccccc3)sc(N)c2C(=O)c2ccc(Cl)cc2)cc1
Reply text: condition met

Inquiry: Check if inhibition >= 60% (inclusive). Item: COc1ccc(-c2sc(N)c(C(=O)c3ccc(Cl)cc3)c2Cc2ccc(Cl)cc2)cc1
Reply text: condition not met

Inquiry: Check if inhibition >= 60% (inclusive). Item: Nc1sc(-c2ccc(Cl)cc2)c(Cc2ccc(Cl)cc2)c1C(=O)c1ccc(Cl)cc1
Reply text: condition met

Inquiry: Check if inhibition >= 60% (inclusive). Item: Nc1sc(-c2ccccc2)c(Cc2ccc(OC(F)(F)F)cc2)c1C(=O)c1ccc(Cl)cc1
Reply text: condition met

Inquiry: Check if inhibition >= 60% (inclusive). Item: COc1cc(Cc2c(-c3ccccc3)sc(N)c2C(=O)c2ccc(Cl)cc2)cc(OC)c1OC
Reply text: condition not met
